System: Human Epithelial Breast Cancer Cells (MCF-7)
Test: Antiproliferative effect, 3H-thymidine incorporation in MCF-7 cells with and without estrogen
Type: cell-based
Conditions: Table 1; test chemical 50 ug/ml + estrogen 1 nM; 24 hours treatment
Use 300 dpm/ug protein as the dividing line for 3H-thymidine incorporation dpm/ug protein, with the line itself on the 1 (yes) side and lower values as 0 (no).

compound	classification
C=CCc1ccc(O)c(OC)c1	0 (no)
CC1=CCC(C(C)(C)O)CC1 (stereo not shown)	1 (yes)
CC(C)=CCCC(C)CC=O (stereo not shown)	0 (no)
C/C=C/c1ccc(OC)cc1 [Trans-anethole]	1 (yes)
Cc1ccc(C(C)C)c(O)c1	0 (no)
CC12CCC(CC1)C(C)(C)O2	1 (yes)
Cc1ccc(C(C)C)cc1O	0 (no)
OC/C=C/c1ccccc1	0 (no)
COC(=O)c1ccccc1O [Methyl salicylate]	1 (yes)
Cc1ccc(C(C)C)cc1	1 (yes)

* * *

List of 3H-thymidine incorporation % of estrogen value values.
Test system: Human Epithelial Breast Cancer Cells (MCF-7)
Assay: Antiproliferative effect, 3H-thymidine incorporation in MCF-7 cells with and without estrogen
Format: cell-based
Conditions: Table 1; test chemical 50 ug/ml + estrogen 1 nM; 24 hours treatment
endpoint.name: 3H-thymidine incorporation % of estrogen value (%)

molecule	unit.of.measure	value
Cc1ccc(C(C)C)cc1	%	96
C/C=C/c1ccc(OC)cc1 [Trans-anethole]	%	89
OC/C=C/c1ccccc1	%	34
CC1=CCC(C(C)(C)O)CC1 (stereo not shown)	%	103
COC(=O)c1ccccc1O [Methyl salicylate]	%	106
CC(C)=CCCC(C)CC=O (stereo not shown)	%	43
Cc1ccc(C(C)C)cc1O	%	28
C=CCc1ccc(O)c(OC)c1	%	44
Cc1ccc(C(C)C)c(O)c1	%	16
CC12CCC(CC1)C(C)(C)O2	%	86

* * *

Entries annotated with measured activity at 50 µg/mL
Tested on: Human Epithelial Breast Cancer Cells (MCF-7)
Test: Antiproliferative effect, 3H-thymidine incorporation in MCF-7 cells with and without estrogen
Type: cell-based
Conditions: Homo sapiens, MCF7, 24 h, Table 1; test chemical 50 ug/ml + estrogen 1 nM; 24 hours treatment; read-out: 3H-thymidine incorporation % of control value

compound	activity at 50 µg/mL
Cc1ccc(C(C)C)cc1 [p-cymene]	152%
COC(=O)c1ccccc1O [Methyl salicylate]	168%
Cc1ccc(C(C)C)c(O)c1 [Thymol]	26%
OC/C=C/c1ccccc1 [Cinnamic alcohol]	53%
CC1=CCC(C(C)(C)O)CC1 (stereo not drawn) [α-terpineol]	164%
C/C=C/c1ccc(OC)cc1 [Trans-anethole]	142%
CC(C)=CCCC(C)CC=O (centres unmarked) [Citronellal]	69%
CC12CCC(CC1)C(C)(C)O2 [Eucalyptol]	137%

* * *

Tested on: Human Epithelial Breast Cancer Cells (MCF-7)
Assay: Antiproliferative effect, 3H-thymidine incorporation in MCF-7 cells with and without estrogen
Assay type: cell-based
Conditions: Table 2; test chemical 50 ug/ml + estrogen 1 nM; 24 hours treatment
Form field: 3H-thymidine incorporation % of estrogen value (one value per entry).
endpoint.name: 3H-thymidine incorporation % of estrogen value (%)

molecule	unit.of.measure	value
COc1ccccc1O [Guaiacol]	%	119
C=C(C)[C@H]1CC=C(C)CC1 [R-(+)-Limonene]	%	79
CC1=CCC(C(C)(C)O)CC1 (stereo not drawn) [α-terpineol]	%	96
CC1=CC[C@H](C(C)C)C=C1 [α-phellandrene]	%	96
